Data origin: ChEMBL document CHEMBL1127781

Assign IC50 to each entry below.
# Tested on: HOC-21 cell line
# procedure.details: Tested in vitro for the inhibition of HOC-21(human ovarian cancer) cell line by MTT assay
# Format: functional, cell-based
Give bare numbers, in µg/mL.

Known results for compounds:
Data point: CCC1(O)C(=O)OCc2c1cc1n(c2=O)Cc2c-1nc1ccc(O)c3c1c2CCC3 (racemic) ; IC50 = 0.0264

Notebook: CCC1(O)C(=O)OCc2c1cc1n(c2=O)Cc2c-1nc1ccc(C)c3c1c2CCS3 (racemic) , IC50 read as 0.0358

Okay, next one:
IC50 reading for CC[C@@]1(O)C(=O)OCc2c1cc1n(c2=O)Cc2c-1nc1cccc3c1c2CCCC3 : 0.0156
